- assay explanation: Bioavailability in Beagle dog at 0.5 mg/kg, iv and 1.0 mg/kg, po
- Assay type: ADME, organism-based, Canis lupus familiaris
- experimental conditions: in vivo
quantity measured: bioavailability (%)
Answers are plain numbers, in %.

Returns the measured bioavailability for the input compound. Input: CC(=O)NC(C)(C)[C@@H]1CC2(CCN(C(=O)[C@@H]3CN(C(C)(C)C)C[C@H]3c3ccc(F)cc3F)CC2)c2cc(Cl)c(C)cc21
71

----------
- system under test: UniProt:P41968
- Sequence (P41968 whole entry): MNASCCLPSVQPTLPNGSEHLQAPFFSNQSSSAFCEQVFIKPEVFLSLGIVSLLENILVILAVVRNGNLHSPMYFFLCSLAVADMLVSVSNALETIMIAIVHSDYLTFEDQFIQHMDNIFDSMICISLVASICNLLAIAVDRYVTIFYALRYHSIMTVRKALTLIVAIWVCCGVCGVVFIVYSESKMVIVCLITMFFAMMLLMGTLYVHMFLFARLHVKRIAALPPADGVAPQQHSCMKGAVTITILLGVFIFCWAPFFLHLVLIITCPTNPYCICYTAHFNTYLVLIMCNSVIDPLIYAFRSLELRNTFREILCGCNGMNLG
- assay explanation: Displacement of [125I]NDP-alpha-MSH from human MC3R expressed in CHO cells
quantity measured: IC50 (nM)
One number for each entry, in nM.

# input compound: CC(=O)NC(C)(C)[C@@H]1CC2(CCN(C(=O)[C@@H]3CN(C(C)(C)C)C[C@H]3c3ccc(F)cc3F)CC2)c2cc(Cl)c(C)cc21 ; wanted: its IC50
890

----------
- system under test: Melanocortin receptor 4 (Rattus norvegicus)
- Sequence (P70596 whole entry): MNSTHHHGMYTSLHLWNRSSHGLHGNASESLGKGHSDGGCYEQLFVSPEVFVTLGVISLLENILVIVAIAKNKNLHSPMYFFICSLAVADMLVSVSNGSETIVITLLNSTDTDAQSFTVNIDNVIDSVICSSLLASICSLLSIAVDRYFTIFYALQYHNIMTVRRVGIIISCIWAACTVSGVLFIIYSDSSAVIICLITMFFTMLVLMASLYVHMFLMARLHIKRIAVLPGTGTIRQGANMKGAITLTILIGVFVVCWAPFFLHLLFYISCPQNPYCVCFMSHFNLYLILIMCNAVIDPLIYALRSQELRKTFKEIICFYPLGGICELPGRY
- assay explanation: Agonist activity at rat MC4R expressed in CHO cells assessed as stimulation of intracellular cAMP accumulation
quantity measured: pEC50
One number for each entry, as −log10 of the molar value.

Tell me the measured pEC50 of CC(=O)NC(C)(C)[C@@H]1CC2(CCN(C(=O)[C@@H]3CN(C(C)(C)C)C[C@H]3c3ccc(F)cc3F)CC2)c2cc(Cl)c(C)cc21 , please.
8.70

----------
- assay explanation: Volume of distribution at steady state in rhesus monkey at 0.5 mg/kg, iv and 2 mg/kg, po
- Assay type: ADME, organism-based, Macaca mulatta
- experimental conditions: in vivo, read-out: Vdss
quantity measured: Vd (L/kg)
Answers are plain numbers, in L/kg.

Query: Vd; subject: CC(=O)NC(C)(C)[C@@H]1CC2(CCN(C(=O)[C@@H]3CN(C(C)(C)C)C[C@H]3c3ccc(F)cc3F)CC2)c2cc(Cl)c(C)cc21
3.5

----------
- system under test: Melanocortin receptor 4 (Homo sapiens, UniProt P32245)
- Sequence (P32245 whole entry): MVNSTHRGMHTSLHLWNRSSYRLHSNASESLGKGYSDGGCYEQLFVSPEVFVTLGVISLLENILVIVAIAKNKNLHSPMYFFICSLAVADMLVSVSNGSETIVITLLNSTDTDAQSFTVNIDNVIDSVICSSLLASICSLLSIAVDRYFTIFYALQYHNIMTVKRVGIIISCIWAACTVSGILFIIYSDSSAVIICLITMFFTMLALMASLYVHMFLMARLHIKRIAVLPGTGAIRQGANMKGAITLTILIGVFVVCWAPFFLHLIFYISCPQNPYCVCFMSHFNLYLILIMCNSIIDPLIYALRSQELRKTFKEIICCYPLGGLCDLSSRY
- assay explanation: Agonist activity at human MC4R expressed in CHO cells assessed as stimulation of intracellular cAMP accumulation
Provide the recorded EC50 for the entries that follow.
Answers are plain numbers, in nM.

Known results for compounds:
CC(=O)NC(C)(C)[C@H]1CC2(CCN(C(=O)[C@@H]3CN(C(C)(C)C)C[C@H]3c3ccc(F)cc3F)CC2)c2cc(Cl)c(C)cc21
3.2
CC(=O)NC(C)(C)[C@H]1CC2(CCN(C(=O)[C@H]3CN(C(C)(C)C)C[C@@H]3c3ccc(F)cc3F)CC2)c2cc(Cl)c(C)cc21
37.2
CC(=O)NC(C)(C)[C@@H]1CC2(CCN(C(=O)[C@H]3CN(C(C)(C)C)C[C@@H]3c3ccc(F)cc3F)CC2)c2cc(Cl)c(C)cc21
94

Now take the following compound into account.
Item under review: CC(=O)NC(C)(C)[C@@H]1CC2(CCN(C(=O)[C@@H]3CN(C(C)(C)C)C[C@H]3c3ccc(F)cc3F)CC2)c2cc(Cl)c(C)cc21 . Reported EC50?
4.9

----------
- system under test: Melanocyte-stimulating hormone receptor (Homo sapiens)
- Sequence (Q01726 whole entry, looked up): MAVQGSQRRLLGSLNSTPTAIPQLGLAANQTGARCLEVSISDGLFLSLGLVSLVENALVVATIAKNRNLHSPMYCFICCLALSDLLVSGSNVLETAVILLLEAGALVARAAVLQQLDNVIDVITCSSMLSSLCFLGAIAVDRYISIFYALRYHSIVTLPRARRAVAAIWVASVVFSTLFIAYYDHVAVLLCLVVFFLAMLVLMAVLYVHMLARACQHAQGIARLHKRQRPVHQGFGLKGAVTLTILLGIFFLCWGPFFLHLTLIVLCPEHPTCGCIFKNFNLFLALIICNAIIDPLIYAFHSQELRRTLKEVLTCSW
- assay explanation: Agonist activity at human MC1R expressed in CHO cells assessed as stimulation of intracellular cAMP accumulation at 10 uM relative to alpha-MSH
- Type: functional, cell-based
Task for the reader: assign each of the following molecules its reported Emax.
One number for each entry, in %.

Worked cases, Emax given:
CC(=O)NC(C)(C)[C@H]1CC2(CCN(C(=O)[C@@H]3CN(C(C)(C)C)C[C@H]3c3ccc(F)cc3F)CC2)c2cc(Cl)c(C)cc21
39
CC(=O)NC(C)(C)[C@@H]1CC2(CCN(C(=O)[C@H]3CN(C(C)(C)C)C[C@@H]3c3ccc(F)cc3F)CC2)c2cc(Cl)c(C)cc21
15
CC(=O)NC(C)(C)[C@@H]1CC2(CCN(C(=O)[C@@H]3CN(C(C)(C)C)C[C@H]3c3ccc(F)cc3F)CC2)c2cc(Cl)c(C)cc21
18

Moving on to another molecule below.
Return reported Emax; argument: CC(=O)NC(C)(C)[C@H]1CC2(CCN(C(=O)[C@H]3CN(C(C)(C)C)C[C@@H]3c3ccc(F)cc3F)CC2)c2cc(Cl)c(C)cc21
41

----------
- system under test: UniProt P33032
- Sequence (P33032 whole entry): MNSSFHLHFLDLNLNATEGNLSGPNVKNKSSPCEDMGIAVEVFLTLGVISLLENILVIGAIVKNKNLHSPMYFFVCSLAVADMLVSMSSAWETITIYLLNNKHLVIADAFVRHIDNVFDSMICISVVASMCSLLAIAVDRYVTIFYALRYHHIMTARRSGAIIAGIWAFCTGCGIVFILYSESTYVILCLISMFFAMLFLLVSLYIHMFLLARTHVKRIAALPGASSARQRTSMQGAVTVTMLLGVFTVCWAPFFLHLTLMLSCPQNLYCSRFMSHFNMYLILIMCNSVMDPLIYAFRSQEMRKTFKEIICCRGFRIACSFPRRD
- assay explanation: Displacement of [125I]NDP-alpha-MSH from human MC5R expressed in CHO cells
quantity measured: pIC50
Answers are plain numbers, as −log10 of the molar value.

Find pIC50 (UniProt P33032) for the entry CC(=O)NC(C)(C)[C@@H]1CC2(CCN(C(=O)[C@@H]3CN(C(C)(C)C)C[C@H]3c3ccc(F)cc3F)CC2)c2cc(Cl)c(C)cc21
7.08

----------
- assay explanation: Bioavailability in rhesus monkey at 0.5 mg/kg, iv and 2 mg/kg, po
- Type: ADME, organism-based, Macaca mulatta
- experimental conditions: in vivo
quantity measured: bioavailability (%)
Answers are plain numbers, in %.

Endpoint output: bioavailability of CC(=O)NC(C)(C)[C@@H]1CC2(CCN(C(=O)[C@@H]3CN(C(C)(C)C)C[C@H]3c3ccc(F)cc3F)CC2)c2cc(Cl)c(C)cc21 . Value?
53

----------
- system under test: UniProt P32245
- assay explanation: Agonist activity at human MC4R expressed in CHO cells assessed as stimulation of intracellular cAMP accumulation at 10 uM relative to alpha-MSH
- Format: functional, cell-based
Assignment: determine reported Emax for the given molecules.
Give bare numbers, in %.

Sample answers from the record:
CC(=O)NC(C)(C)[C@H]1CC2(CCN(C(=O)[C@@H]3CN(C(C)(C)C)C[C@H]3c3ccc(F)cc3F)CC2)c2cc(Cl)c(C)cc21
97
CC(=O)NC(C)(C)[C@H]1CC2(CCN(C(=O)[C@H]3CN(C(C)(C)C)C[C@@H]3c3ccc(F)cc3F)CC2)c2cc(Cl)c(C)cc21
111
CC(=O)NC(C)(C)[C@@H]1CC2(CCN(C(=O)[C@H]3CN(C(C)(C)C)C[C@@H]3c3ccc(F)cc3F)CC2)c2cc(Cl)c(C)cc21
107

// next item, Emax requested
Requested field: Emax. Item: CC(=O)NC(C)(C)[C@@H]1CC2(CCN(C(=O)[C@@H]3CN(C(C)(C)C)C[C@H]3c3ccc(F)cc3F)CC2)c2cc(Cl)c(C)cc21
105

----------
- assay explanation: Volume of distribution at steady state in Beagle dog at 0.5 mg/kg, iv and 1.0 mg/kg, po
- Assay type: ADME, organism-based, Canis lupus familiaris
- experimental conditions: in vivo, read-out: Vdss
quantity measured: Vd (L/kg)
Numbers only, in L/kg.

Which value of Vd has been reported for CC(=O)NC(C)(C)[C@@H]1CC2(CCN(C(=O)[C@@H]3CN(C(C)(C)C)C[C@H]3c3ccc(F)cc3F)CC2)c2cc(Cl)c(C)cc21 in the records?
3.5

----------
- assay explanation: Half life in Sprague-Dawley rat at 1 mg/kg, iv and 4 mg/kg, po
- Format: ADME, organism-based
- experimental conditions: in vivo
quantity measured: half-life (h)
One number for each entry, in h.

Consider the compound CC(=O)NC(C)(C)[C@@H]1CC2(CCN(C(=O)[C@@H]3CN(C(C)(C)C)C[C@H]3c3ccc(F)cc3F)CC2)c2cc(Cl)c(C)cc21 and give its measured half-life.
4.5

----------
- system under test: Melanocortin receptor 4 (Homo sapiens, UniProt P32245)
- assay explanation: Displacement of [125I]NDP-alpha-MSH from human MC4R expressed in CHO cells
quantity measured: pIC50
Answers are plain numbers, as −log10 of the molar value.

A selection of reference data follows.
CC(=O)NC(C)(C)[C@H]1CC2(CCN(C(=O)[C@@H]3CN(C(C)(C)C)C[C@H]3c3ccc(F)cc3F)CC2)c2cc(Cl)c(C)cc21
8.37
CC(=O)NC(C)(C)[C@@H]1CC2(CCN(C(=O)[C@@H]3CN(C(C)(C)C)C[C@H]3c3ccc(F)cc3F)CC2)c2cc(Cl)c(C)cc21
7.89
CC(=O)NC(C)(C)[C@@H]1CC2(CCN(C(=O)[C@H]3CN(C(C)(C)C)C[C@@H]3c3ccc(F)cc3F)CC2)c2cc(Cl)c(C)cc21
7.05

Would you mind telling me what pIC50 value was observed for CC(=O)NC(C)(C)[C@H]1CC2(CCN(C(=O)[C@H]3CN(C(C)(C)C)C[C@@H]3c3ccc(F)cc3F)CC2)c2cc(Cl)c(C)cc21 ?
7.40

----------
- assay explanation: Clearance in Beagle dog at 0.5 mg/kg, iv and 1.0 mg/kg, po
- Format: ADME, organism-based, Canis lupus familiaris
- experimental conditions: in vivo
quantity measured: clearance (mL/min/kg)
One number for each entry, in mL/min/kg.

For the compound CC(=O)NC(C)(C)[C@@H]1CC2(CCN(C(=O)[C@@H]3CN(C(C)(C)C)C[C@H]3c3ccc(F)cc3F)CC2)c2cc(Cl)c(C)cc21 , what clearance is on record?
3.5
